Hi there, I'd appreciate the recorded Plant response rating (0 to 100), Barnyardgrass for every entry that follows.
Test system: barnyardgrass
Experimental protocol: Test C flood test plant response rating 0 to 100
Format: in vivo, Echinochloa crus-galli
Condition summary: Rate 16 g/ha; under POSTEMERGENCE head (flood test species)
One number for each entry.

Quick request: Plant response rating (0 to 100), Barnyardgrass for each listed item, please.
1. C#CC(C)N1C(=O)COc2cc(F)c(-c3nn4c(c3Cl)CCCC4)cc21 (centres unmarked) [Compound 50]
2. COc1cc(-c2nn3c(c2Cl)CCCC3)c(F)cc1Cl [Compound 29]
3. COC(=O)c1cc(-c2nn3c(c2Cl)CCCC3)c(F)cc1Cl [Compound 43]
4. COC(=O)C(C)Oc1cc(-c2nn3c(c2Cl)CCCC3)c(F)cc1Cl (centres unmarked) [Compound 28]

Result:
[70, 100, 95, 50]

Request: What measured Plant response rating (0 to 100), Barnyardgrass is associated with C=CCN1C(=O)COc2cc(F)c(-c3nn4c(c3Br)CCCC4)cc21 [Compound 41] on barnyardgrass?
Result: 90

====

Test system: wheat
Experimental protocol: Test B preemergence/postemergence greenhouse plant response rating 0 to 10
Type: in vivo, Triticum aestivum
Condition summary: PREEMERGENCE, Rate 50 g/ha; 0 to 10 scale
Measured property: Plant response rating, Wheat
Numbers only.

# Molecule, Recorded measurement
measured = [
    ("CCN1C(=O)COc2cc(F)c(-c3nn4c(c3Cl)CCCC4)cc21 [Compound 54]", 3),
    ("C=CCOC(=O)COc1cc(-c2nn3c(c2Cl)CCCC3)c(F)cc1Cl [Compound 62]", 2),
]

Quick request: Plant response rating, Wheat for each listed item, please.
1. COCOc1cc(-c2nn3c(c2Br)CCCC3)c(F)cc1Cl [Compound 65]
2. C#CCOC(=O)COc1cc(-c2nn3c(c2Cl)CCCC3)c(F)cc1Cl [Compound 61]

Result:
0
0

====

Tested on: blackgrass
Experimental protocol: Test B preemergence/postemergence greenhouse plant response rating 0 to 10
Type: in vivo, Alopecurus myosuroides
Condition summary: POSTEMERGENCE, Rate 200 g/ha; 0 to 10 scale
Hi there, I'd appreciate the recorded Plant response rating, Blackgrass for every entry that follows.
Give bare numbers.

Quick request: Plant response rating, Blackgrass for each listed item, please.
1. Fc1cc(Cl)c(OC2CCCC2)cc1-c1nn2c(c1Cl)CCCC2
2. COC(=O)C(C)Oc1cc(-c2nn3c(c2Cl)CCCC3)c(F)cc1Cl (stereo not shown)
3. CC(C)OC(=O)c1cc(-c2nn3c(c2Cl)CCCC3)c(F)cc1Cl
4. Clc1ccc(-c2nn3c(c2Cl)CCCC3)c(Cl)c1

Result:
1: 6; 2: 6; 3: 9; 4: 4

====

System: wild buckwheat
Experimental protocol: Test B preemergence/postemergence greenhouse plant response rating 0 to 10
Assay type: in vivo, Polygonum convolvulus
Condition summary: Rate 200 g/ha, POSTEMERGENCE; 0 to 10 scale
Hi there, I'd appreciate the recorded Plant response rating, Wild buckwheat for every entry that follows.
One number for each entry.

# Compound, Plant response rating, Wild buckwheat
data = [
    ("C#CC(C)Oc1cc(-c2nn3c(c2Br)CCCC3)c(F)cc1Cl (stereo not drawn)", 10),
]

Quick request: Plant response rating, Wild buckwheat for each listed item, please.
1. Clc1cc(Cl)c(-c2nn3c(c2Cl)CCCC3)cc1OCC1CC1
2. COCCOc1cc(-c2nn3c(c2Cl)CCCC3)c(Cl)cc1Cl
3. O=C1COc2cc(F)c(-c3nn4c(c3Br)CCCC4)cc2N1

Result:
10
10
10
